Each recorded value in this set is attributed to patent US10100049B2.

Tested on: IL-13 induced pSTAT6 in lung tissue
Test: Murine model of IL-13 induced pSTAT6 induction in lung tissue
Format: in vivo
Conditions: mouse lung; 0.5 mg/mL, 50 μL oral aspiration; IL-13 challenge 4 h after dosing, lungs collected 1 h later; read-out: pSTAT6 inhibition Assay 5
A collection of compounds and their measured inhibition in vivo at 500 µg/mL

Some compounds with known inhibition in vivo at 500 µg/mL results, for comparison:
{"compound": "CCc1cc(O)c(F)cc1-c1ccc2c(-c3nc4c([nH]3)CCN(C3CN(C5CC5)C3)C4)n[nH]c2c1 [Example 5]", "inhibition in vivo at 500 µg/mL": "> 65%"}
{"compound": "CCc1cc(O)c(F)cc1-c1ccc2c(-c3nc4c([nH]3)CCN(C[C@@H]3CCCN3C)C4)n[nH]c2c1 [Example 11]", "inhibition in vivo at 500 µg/mL": "33 to 50%"}
{"compound": "CCc1cc(O)c(F)cc1-c1ccc2c(-c3nc4c([nH]3)CCN(CCNC3CC(OC)C3)C4)n[nH]c2c1 (stereo not drawn) [Example 8]", "inhibition in vivo at 500 µg/mL": "50 to 65%"}

Q) Quote inhibition in vivo at 500 µg/mL reported for CCc1cc(O)c(F)cc1-c1ccc2c(-c3nc4c([nH]3)CCN(C[C@@H]3COCCN3)C4)n[nH]c2c1 [Example 14] please.
A) > 65%

Q) Quote inhibition in vivo at 500 µg/mL reported for CCc1cc(O)c(F)cc1-c1ccc2c(-c3nc4c([nH]3)CCN(C3CCN(C)CC3)C4)n[nH]c2c1 [Example 6] please.
A) 50 to 65%

Q) Quote inhibition in vivo at 500 µg/mL reported for CCc1cc(O)c(F)cc1-c1ccc2c(-c3nc4c([nH]3)CCN(C3CNC3)C4)n[nH]c2c1 [Example 2] please.
A) 33 to 50%

Q) Quote inhibition in vivo at 500 µg/mL reported for CCc1cc(O)c(F)cc1-c1ccc2c(-c3nc4c([nH]3)CCN(CCN(C)CC)C4)n[nH]c2c1 [Example 9] please.
A) 50 to 65%

Q) Quote inhibition in vivo at 500 µg/mL reported for CCc1cc(O)c(F)cc1-c1ccc2c(-c3nc4c([nH]3)CCN(CCN(C)C(C)CC)C4)n[nH]c2c1 (stereo not drawn) [Example 10] please.
A) 33 to 50%

Q) Quote inhibition in vivo at 500 µg/mL reported for CCc1cc(O)c(F)cc1-c1ccc2c(-c3nc4c([nH]3)CCN(C[C@H]3COCCN3)C4)n[nH]c2c1 [Example 13] please.
A) 33 to 50%

Q) Quote inhibition in vivo at 500 µg/mL reported for CCc1cc(O)c(F)cc1-c1ccc2c(-c3nc4c([nH]3)CCN(CCN(C)C)C4)n[nH]c2c1 [Example 7] please.
A) > 65%

Q) Quote inhibition in vivo at 500 µg/mL reported for CCc1cc(O)c(F)cc1-c1ccc2c(-c3nc4c([nH]3)CCN(CCN3CCC[C@@H]3C)C4)n[nH]c2c1 [Example 15] please.
A) 50 to 65%

###

Target: Tyk2 (Homo sapiens (Human), UniProt P29597)
Sequence (P29597 whole entry): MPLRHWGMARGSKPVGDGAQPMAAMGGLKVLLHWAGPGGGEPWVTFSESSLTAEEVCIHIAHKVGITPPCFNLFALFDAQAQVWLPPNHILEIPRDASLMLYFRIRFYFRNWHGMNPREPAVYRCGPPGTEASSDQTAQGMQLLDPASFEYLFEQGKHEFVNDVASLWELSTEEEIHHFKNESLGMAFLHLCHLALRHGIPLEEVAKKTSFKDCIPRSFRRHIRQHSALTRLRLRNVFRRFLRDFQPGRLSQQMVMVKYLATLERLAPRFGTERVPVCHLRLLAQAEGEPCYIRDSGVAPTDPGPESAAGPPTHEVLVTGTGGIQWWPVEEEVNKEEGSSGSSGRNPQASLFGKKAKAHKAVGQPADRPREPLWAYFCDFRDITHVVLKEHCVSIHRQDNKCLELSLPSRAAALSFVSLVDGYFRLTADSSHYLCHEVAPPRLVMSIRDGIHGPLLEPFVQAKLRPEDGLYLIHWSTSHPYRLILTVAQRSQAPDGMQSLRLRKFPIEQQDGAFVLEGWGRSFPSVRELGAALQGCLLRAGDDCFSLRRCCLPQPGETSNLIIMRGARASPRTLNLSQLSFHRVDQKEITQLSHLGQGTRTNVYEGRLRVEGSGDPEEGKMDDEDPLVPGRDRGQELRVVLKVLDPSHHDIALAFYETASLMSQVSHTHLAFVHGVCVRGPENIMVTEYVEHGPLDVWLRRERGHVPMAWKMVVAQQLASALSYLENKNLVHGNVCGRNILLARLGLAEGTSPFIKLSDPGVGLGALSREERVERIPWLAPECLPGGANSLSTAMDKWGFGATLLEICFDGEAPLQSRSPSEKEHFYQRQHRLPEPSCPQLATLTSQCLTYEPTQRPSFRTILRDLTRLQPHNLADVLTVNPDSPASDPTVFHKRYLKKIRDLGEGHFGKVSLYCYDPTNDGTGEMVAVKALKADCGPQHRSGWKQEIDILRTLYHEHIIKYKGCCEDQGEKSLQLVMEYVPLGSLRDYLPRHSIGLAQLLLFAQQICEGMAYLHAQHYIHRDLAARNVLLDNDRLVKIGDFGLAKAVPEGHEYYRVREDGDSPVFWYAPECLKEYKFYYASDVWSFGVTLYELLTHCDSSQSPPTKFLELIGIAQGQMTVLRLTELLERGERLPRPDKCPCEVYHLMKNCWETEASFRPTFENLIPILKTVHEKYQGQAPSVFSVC
Test: LanthaScreen JAK biochemical assay (Tyk2); also: ATP at Km 10 µM
Conditions: read-out: Tyk 2 (PKi)
A collection of compounds and their measured Ki

Some compounds with known Ki results, for comparison:
{"compound": "CCc1cc(O)c(F)cc1-c1ccc2c(-c3nc4c([nH]3)CCN(C[C@@H]3CCCN3C)C4)n[nH]c2c1", "Ki": "0.316 to 1 nM"}
{"compound": "CCc1cc(O)c(F)cc1-c1ccc2c(-c3nc4c([nH]3)CCN(C3CN(C5CC5)C3)C4)n[nH]c2c1", "Ki": "0.316 to 1 nM"}
{"compound": "CCc1cc(O)c(F)cc1-c1ccc2c(-c3nc4c([nH]3)CCN(C[C@H]3COCCN3)C4)n[nH]c2c1", "Ki": "0.316 to 1 nM"}
{"compound": "CCc1cc(O)c(F)cc1-c1ccc2c(-c3nc4c([nH]3)CCN(C3CCN(C)CC3)C4)n[nH]c2c1", "Ki": "0.1 to 1 nM"}
{"compound": "CCc1cc(O)c(F)cc1-c1ccc2c(-c3nc4c([nH]3)CCN(CCN(C)C(C)CC)C4)n[nH]c2c1 (stereo not drawn)", "Ki": "0.1 to 1 nM"}
{"compound": "CCc1cc(O)c(F)cc1-c1ccc2c(-c3nc4c([nH]3)CCN(C3CCN(C)C3)C4)n[nH]c2c1 (stereo not drawn)", "Ki": "0.316 to 1 nM"}

Q) Quote Ki with test system Tyk2 (Homo sapiens (Human), UniProt P29597) for CCc1cc(O)c(F)cc1-c1ccc2c(-c3nc4c([nH]3)CCN(CC(F)CN(C)C)C4)n[nH]c2c1 (stereo not drawn)
A) 0.316 to 1 nM

Q) Quote Ki with test system Tyk2 (Homo sapiens (Human), UniProt P29597) for CCc1cc(O)c(F)cc1-c1ccc2c(-c3nc4c([nH]3)CCN(C3CNC3)C4)n[nH]c2c1
A) 0.1 to 1 nM

Q) Quote Ki with test system Tyk2 (Homo sapiens (Human), UniProt P29597) for CCc1cc(O)c(F)cc1-c1ccc2c(-c3nc4c([nH]3)CCN(CCNC3CC(OC)C3)C4)n[nH]c2c1 (stereo not drawn)
A) 0.1 to 1 nM
